Entries and their pIC50
Biological target: P2X purinoceptor 7 (Homo sapiens, UniProt Q99572)
Sequence (Q99572 whole entry): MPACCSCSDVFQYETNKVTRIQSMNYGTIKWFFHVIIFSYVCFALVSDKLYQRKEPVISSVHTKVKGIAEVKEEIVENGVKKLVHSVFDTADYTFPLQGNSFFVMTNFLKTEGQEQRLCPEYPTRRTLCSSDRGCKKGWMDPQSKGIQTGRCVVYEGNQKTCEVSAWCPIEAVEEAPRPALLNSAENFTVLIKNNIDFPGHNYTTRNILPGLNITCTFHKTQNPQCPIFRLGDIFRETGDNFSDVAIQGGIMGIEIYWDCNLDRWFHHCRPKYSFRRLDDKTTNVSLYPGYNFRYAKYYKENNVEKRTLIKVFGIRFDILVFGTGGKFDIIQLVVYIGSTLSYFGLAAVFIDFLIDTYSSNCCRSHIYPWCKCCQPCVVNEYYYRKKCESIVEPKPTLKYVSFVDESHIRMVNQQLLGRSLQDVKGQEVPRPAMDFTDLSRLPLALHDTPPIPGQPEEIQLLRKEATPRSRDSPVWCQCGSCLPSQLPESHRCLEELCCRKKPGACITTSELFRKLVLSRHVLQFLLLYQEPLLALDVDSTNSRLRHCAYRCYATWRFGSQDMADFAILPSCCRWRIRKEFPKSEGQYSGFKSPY
Assay: Inhibition of human P2X7 receptor transfected in HEK293 cells by calcium influx assay
Format: cell-based
pIC50: −log10 of the molar value.

O=C(NCc1cccc(C(F)(F)F)c1Cl)[C@@]1(O)CCC(O)c2ncccc21 (stereo not given in full) : 7.00
O=C1CO[C@]2(CC[C@@](F)(C(=O)NCc3ccc(Cl)cc3Cl)c3cccnc32)CN1 : > 7.30
O=C1CCC(C(=O)NCC2CCCCCCC2)c2cccnc21 (stereo not given) : < 6.00
O=C1CCC(C(=O)NCc2cccc(C(F)(F)F)c2Cl)c2cccnc21 (stereo not given) : > 7.30

Could you now look at the following compound, please?
Look up pIC50 with P2X purinoceptor 7 (Homo sapiens, UniProt Q99572) for this compound: CS(=O)(=O)C[C@]1(O)CC[C@@](F)(C(=O)NCc2ccc(Cl)cc2Cl)c2cccnc21
> 7.30

* * *

Test: Half life in human liver microsomes
Type: ADME, Microsome
TEST READOUT: half-life (min)
The response must be a number in min with no trailing unit.

Given the entry Cc1ccc2c(=O)n(C(C)CO)ccc2c1NC(=O)Cc1ccc(C(F)(F)F)c(F)c1 (stereo unspecified) , report its measured half-life.
55.8

* * *

Biological target: UniProt:Q9Z1M0
Assay: Inhibition of mouse P2X7 receptor expressed in xenopus laevis Oocyte cells by TEVC analysis
Type: cell-based
// IC50 lookup, one value per entry
Number in nM, nothing else.

O=C(NCC1(c2ccc(CO[N+](=O)[O-])cc2)CCCCC1)c1ccccc1Cl : 390

Read the next record carefully.
Reported IC50 for Cc1ccc(C2(CNC(=O)c3cc(CO[N+](=O)[O-])ccc3Cl)CCCCC2)cc1 : what is it?
1430

* * *

Target: P2X purinoceptor 7 (Homo sapiens, UniProt Q99572)
Assay: Antagonist activity at human P2X7 receptor by calcium flux assay
# maps each entry to its IC50

O=c1onc(Cc2ccc(Cl)cc2Cl)n1CC1CCC(F)(F)CC1 : < 200 nM

What value of measured IC50 is listed for O=c1onc(Cc2c(F)cccc2Cl)n1CC1CCCCCC1 ?
< 200 nM

# get_value(readout='IC50', item= Cc1ncccc1Cc1noc(=O)n1CC1CCC(F)(F)CC1 )
200 nM

// query IC50 value for entry O=c1onc(Cc2ccccc2Cl)n1CC1CCC(F)(F)CC1
< 200 nM

What value of IC50 has been recorded for this entry: CC1CC(F)(F)CCN1Cn1c(Cc2c(F)cccc2Cl)noc1=O (stereo unspecified)
< 200 nM

# lookup: IC50 of O=c1onc(CN2CCC(F)(F)CC2)n1CC1CCC(F)(F)CC1
> 10000 nM

* * *

Target: P2X purinoceptor 7 (Mus musculus)
Sequence (Q9Z1M0 whole entry): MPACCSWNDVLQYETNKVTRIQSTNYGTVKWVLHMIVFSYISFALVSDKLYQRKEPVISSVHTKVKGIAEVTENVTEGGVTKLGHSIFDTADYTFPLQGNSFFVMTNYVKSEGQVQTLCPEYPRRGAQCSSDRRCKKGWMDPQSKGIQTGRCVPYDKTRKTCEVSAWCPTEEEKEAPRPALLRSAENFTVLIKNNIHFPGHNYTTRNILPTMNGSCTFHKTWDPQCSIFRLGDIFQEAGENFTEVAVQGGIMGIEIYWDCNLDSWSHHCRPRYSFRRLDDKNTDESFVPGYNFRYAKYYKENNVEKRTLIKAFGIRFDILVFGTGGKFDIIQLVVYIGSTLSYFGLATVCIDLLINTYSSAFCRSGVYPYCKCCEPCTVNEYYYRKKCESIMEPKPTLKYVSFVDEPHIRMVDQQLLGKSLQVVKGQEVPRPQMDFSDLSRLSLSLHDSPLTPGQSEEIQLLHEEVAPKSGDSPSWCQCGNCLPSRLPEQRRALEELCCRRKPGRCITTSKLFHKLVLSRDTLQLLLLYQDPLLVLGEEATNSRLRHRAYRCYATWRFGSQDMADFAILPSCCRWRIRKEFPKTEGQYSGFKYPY
Test: Antagonist activity at mouse P2X7 receptor by calcium flux assay
TEST READOUT: IC50

O=c1onc(Cc2c(F)cccc2Cl)n1CC1CCC(C(F)(F)F)CC1 (stereo unspecified) : < 200 nM
O=c1snc(Cc2c(F)cccc2Cl)n1CC1CCC(F)(F)CC1 : < 200 nM
O=c1onc(Cc2c(F)cccc2Cl)n1CC1CCC(F)(F)CC1 : < 200 nM
O=c1onc(CN2CCC(F)(F)CC2)n1CC1CCC(F)(F)CC1 : > 10000 nM
O=c1onc(CN2CCOc3ccccc32)n1CC1CCC(F)(F)CC1 : < 200 nM

Here's the next entry for you.
Param readout= IC50; system= P2X purinoceptor 7 (Mus musculus); entry= CC1CC(F)(F)CCN1Cn1c(Cc2c(F)cccc2Cl)noc1=O (stereo unspecified) ; returns value.
< 200 nM
